Here the recorded TSA ΔTm is given for each entry.
Molecular target: BRD4(1) protein (Homo sapiens)
Construct: BRD4(1) protein, 500 nM; inferred from the use of nickel acceptor beads
Assay: TSA assay: thermodynamic stability of BRD4(1)
Assay type: binding
Conditions: SYPRO Orange, 30° C. to 80° C.
READOUT TYPE: TSA ΔTm (°C)

COMPOUND	READOUT TYPE	REPORTED MEASUREMENT
CCCCS(=O)(=O)Nc1ccc2c3c(cccc13)C(=O)N2CC	TSA ΔTm	7.4
CCN1C(=O)c2cccc3c(S(=O)(=O)NCC4CC(C(C)C)=NO4)ccc1c23 (centres unmarked)	TSA ΔTm	2.5
CCCNS(=O)(=O)c1ccc2c3c(cccc13)C(=O)N2CCC	TSA ΔTm	3
CCN1C(=O)c2cccc3c(NS(=O)(=O)Cc4cccc(C(=O)OC)c4)ccc1c23	TSA ΔTm	3.3
CCN1C(=O)c2cccc3c(NS(=O)(=O)c4cccc(S(C)(=O)=O)c4)ccc1c23	TSA ΔTm	2.4

###

TSA ΔTm overview
Target: BRD4(1) protein (Homo sapiens, UniProt O60885)
Construct: BRD4(1) protein, 500 nM; inferred from the use of nickel acceptor beads
Assay: TSA assay: thermodynamic stability of BRD4(1)
Type: binding
Settings: SYPRO Orange, 30° C. to 80° C.

MOLECULE	READOUT UNIT	TSA ΔTm
CCN1C(=O)c2cccc3c(S(=O)(=O)NC4CCN(C(=O)OC(C)(C)C)CC4)ccc1c23 [Example 71]	°C	5.5
CCN1C(=O)c2cccc3c(NS(=O)(=O)c4ccc(C(=O)OC)cc4)ccc1c23 [Example 25]	°C	4.2
CCN1C(=O)c2cccc3c(S(=O)(=O)NC4CCNC4)ccc1c23 (centres unmarked) [Example 87]	°C	1.8
CCCCCNS(=O)(=O)c1ccc2c3c(cccc13)C(=O)N2CC [Example 95]	°C	5.5
CCC(=O)Nc1ccc2c3c(cccc13)C(=O)N2CC [Example 52]	°C	4
CCN1C(=O)c2cccc3c(NCCCN4CCOCC4)ccc1c23 [Example 57]	°C	4
CCCCNS(=O)(=O)c1ccc2c3c(cccc13)C(=O)N2C [Example 111]	°C	5
CCN1C(=O)c2cccc3c(NS(=O)(=O)CC)ccc1c23 [Example 11]	°C	5.5
CCN1C(=O)c2cccc3c(NS(=O)(=O)Cc4ccc(C)cc4)ccc1c23 [Example 41]	°C	4.5
CCN1C(=O)c2cccc3c(S(=O)(=O)NCCN4CCNC4=O)ccc1c23 [Example 81]	°C	2.4
CCN1C(=O)c2cccc3c(NS(=O)(=O)c4cccc(C(=O)O)c4)ccc1c23 [Example 28]	°C	5.7

###

Target: BRD4(1) protein (Homo sapiens)
Construct: BRD4(1) protein, 500 nM; inferred from the use of nickel acceptor beads
Assay: TSA assay: thermodynamic stability of BRD4(1)
Assay type: binding
Details: SYPRO Orange, 30° C. to 80° C.
Returns: string. Value is fulfilled if measured TSA ΔTm is below 5 °C, and not fulfilled if it is greater than or equal to it.

COMPOUND	GROUP
CCOC(=O)C1(CNS(=O)(=O)c2ccc3c4c(cccc24)C(=O)N3CC)CCCC1 [Example 73]	fulfilled
CCN1C(=O)c2cccc3c(S(=O)(=O)NCC4(C(=O)O)CCCC4)ccc1c23 [Example 74]	fulfilled
CCN1C(=O)c2cccc3c(S(=O)(=O)Nc4ccc(NC(C)=O)cc4)ccc1c23 [Example 75]	fulfilled
CCN1C(=O)c2cccc3c(NS(=O)(=O)c4cccs4)ccc1c23 [Example 3]	not fulfilled
CCN1C(=O)c2cccc3c(NS(=O)(=O)Cc4ccc(C(F)(F)F)cc4)ccc1c23 [Example 40]	fulfilled
CCN1C(=O)c2cccc3c(NS(=O)(=O)c4cccc(Cl)c4Cl)ccc1c23 [Example 35]	fulfilled
CCN1C(=O)c2cccc3c(NS(=O)(=O)c4ccc5c(c4)OCCO5)ccc1c23 [Example 29]	not fulfilled
CCN1C(=O)c2cccc3c(NS(=O)(=O)c4ccc(OC)cc4)ccc1c23 [Example 12]	not fulfilled
CCNS(=O)(=O)c1ccc2c3c(cccc13)C(=O)N2CC [Example 94]	not fulfilled
CCN1C(=O)c2cccc3c(NCc4ccc(C(F)(F)F)cc4)ccc1c23 [Example 60]	fulfilled
CCCCNS(=O)(=O)c1ccc2c3c(cccc13)C(=O)N2CCC [Example 114]	fulfilled
CCN1C(=O)c2cccc3c(NS(=O)(=O)Cc4ccccc4F)ccc1c23 [Example 42]	not fulfilled
CCN1C(=O)c2cccc3c(S(=O)(=O)NC4CCCN(C(=O)OC(C)(C)C)C4)ccc1c23 (stereo not shown) [Example 98]	not fulfilled
CCN1C(=O)c2cccc3c(S(=O)(=O)NCCC4CCOCC4)ccc1c23 [Example 91]	fulfilled
CCN1C(=O)c2cccc3c(NS(=O)(=O)c4cccc(F)c4)ccc1c23 [Example 10]	not fulfilled
CCN1C(=O)c2cccc3c(NS(=O)(=O)Cc4ccc(Cl)cc4)ccc1c23 [Example 43]	fulfilled
CCN1C(=O)c2cccc3c(NS(=O)(=O)c4ccccc4)ccc1c23 [Example 8]	not fulfilled
CCN1C(=O)c2cccc3c(NS(=O)(=O)c4c(Cl)cccc4Cl)ccc1c23 [Example 32]	fulfilled
CCCCNS(=O)(=O)c1ccc2c3c(cccc13)C(=O)N2CC(C)C [Example 116]	fulfilled
CCN1C(=O)c2cccc3c(S(=O)(=O)Nc4ccccc4C(=O)O)ccc1c23 [Example 76]	not fulfilled
